B1: FAM46D (parent)
chain: LELKFVSSLRRQFEFSVDSFQIVL

# Variants of: B1
# EXPERIMENTAL_DETAILS: protein stability index of a GFP-peptide fusion (GPS, HEK-293T) (PSI 1-6); higher = more stable;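 further: lentivirally expressed fusions sorted by FACS into six bins by GFP to DsRed ratio, PSI derived from sequencing read proportions per bin multiplied by bin number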
# CONDITION_LABEL: c terminus: a fixed tail appended
Entries and their protein stability index
Respond using a number only.

• R10Y = 2.17

Ask | Give the reported protein stability index for this variant. L3H
Reply | 1.82

Ask | Give the reported protein stability index for this variant. S7D
Reply | 3.25

Reference source for all entries: the supplement of paper PMC10567573
